- target_entity: human TLR7 (Homo sapiens (Human), UniProt Q9NYK1)
- Sequence (Q9NYK1 27-1049): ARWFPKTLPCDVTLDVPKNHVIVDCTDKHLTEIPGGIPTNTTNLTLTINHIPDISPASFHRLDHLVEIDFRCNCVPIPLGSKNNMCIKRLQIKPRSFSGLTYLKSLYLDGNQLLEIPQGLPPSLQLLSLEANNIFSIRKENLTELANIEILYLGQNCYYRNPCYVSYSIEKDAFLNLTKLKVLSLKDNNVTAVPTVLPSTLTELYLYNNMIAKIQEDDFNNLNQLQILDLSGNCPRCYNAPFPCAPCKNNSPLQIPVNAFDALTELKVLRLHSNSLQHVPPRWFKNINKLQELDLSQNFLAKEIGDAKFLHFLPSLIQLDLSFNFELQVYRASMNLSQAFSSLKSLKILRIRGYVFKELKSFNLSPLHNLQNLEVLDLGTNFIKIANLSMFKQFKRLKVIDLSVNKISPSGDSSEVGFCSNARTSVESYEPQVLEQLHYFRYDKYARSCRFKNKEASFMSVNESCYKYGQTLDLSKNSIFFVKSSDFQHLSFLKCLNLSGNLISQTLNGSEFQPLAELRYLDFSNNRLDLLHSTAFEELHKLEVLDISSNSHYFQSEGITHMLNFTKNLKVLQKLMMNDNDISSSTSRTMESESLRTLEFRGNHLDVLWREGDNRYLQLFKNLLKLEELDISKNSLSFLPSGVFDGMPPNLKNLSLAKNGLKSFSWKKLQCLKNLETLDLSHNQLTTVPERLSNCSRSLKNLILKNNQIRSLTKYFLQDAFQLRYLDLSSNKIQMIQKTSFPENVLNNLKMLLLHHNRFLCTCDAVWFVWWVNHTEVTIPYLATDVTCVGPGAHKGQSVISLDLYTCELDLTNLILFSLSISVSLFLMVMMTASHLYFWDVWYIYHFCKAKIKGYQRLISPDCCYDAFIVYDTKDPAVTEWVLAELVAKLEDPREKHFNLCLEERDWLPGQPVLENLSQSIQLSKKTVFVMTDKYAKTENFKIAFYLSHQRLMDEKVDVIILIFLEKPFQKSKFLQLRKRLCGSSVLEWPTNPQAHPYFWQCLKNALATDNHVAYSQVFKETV
- assay_overview: TLR7 inhibition reporter assay (HEK-Blue SEAP)
- Format: cell-based
- assay_setup: HEK-Blue cells overexpressing human TLR7, SEAP reporter, gardiquimod 7.5 μM
endpoint_label: IC50 (nM)

{"molecule": "Cc1c(-c2[nH]c3ccc(N4C[C@@H](C)NC[C@@H]4C)nc3c2C(C)C)cn2ncnc2c1C", "value_units": "nM", "IC50": 0.59}

a. Cc1c(-c2[nH]c3ccc(C4CCC(N)CC4)nc3c2C(C)C)cn2ncnc2c1C (stereo not drawn) [Example 469]
b. CC(C)c1c(-c2cn(C)c3ncccc23)[nH]c2ccc(CCC3CN(CCS(C)(=O)=O)C3)nc12
c. COc1ccc2[nH]c(-c3cc(OC)c4ncnn4c3)c(C(C)C)c2n1
Query: List from greatest to least IC50. List the labels in the requested order.
Result: c, b, a

a. CNC(=O)CNC1CCC(c2ccc3[nH]c(-c4cc(OC)c5ncnn5c4)c(C(C)C)c3n2)C1 (stereo not drawn) [Example 719]
b. Cc1c(-c2[nH]c3ccc(N4C[C@H](C)N(C(=O)CN(C)C)[C@@H](C)C4)nc3c2C(C)C)cn2ncnc2c1C
Query: For the pair a and b , which entry has the numerically smaller recorded IC50? Which one? Tell me its label.
Result: a
(a: 2.8 nM, b: 4.2 nM)

a. Cc1c(-c2[nH]c3ccc(C4CCC(NC(C)(C)C(=O)N5CCOCC5)CC4)nc3c2C(C)C)cn2ncnc2c1C (stereo not drawn)
b. COc1cc(-c2[nH]c3ccc(C4CC(NCCS(C)(=O)=O)C4)nc3c2C(C)C)cn2ncnc12 (stereo not drawn)
c. COc1cc(-c2[nH]c3ccc(C4CCC(NCCS(C)(=O)=O)C4)nc3c2C(C)C)cn2ncnc12 (stereo not drawn)
d. COc1cc(-c2[nH]c3ccc(C4CCN(CC(N)=O)CC4)nc3c2C(C)C)cn2ncnc12
Query: Please list these in order of increasing IC50. Thank you! List the labels in the requested order.
Result: d, b, a, c

a. COc1cc(-c2[nH]c3ccc(C4CCC(N(CCS(C)(=O)=O)CCS(C)(=O)=O)C4)nc3c2C(C)C)cn2ncnc12 (stereo not drawn) [Example 717]
b. CNC(=O)CN(C)C1CCC(c2ccc3[nH]c(-c4cn5ncnc5c(C)c4C)c(C(C)C)c3n2)CC1 (stereo not drawn) [Example 420]
Query: For the pair a and b , which entry has the numerically smaller recorded IC50? Which one? Tell me its label.
Result: b

A. Cc1c(-c2[nH]c3ccc(C4CC(N(C)CC(C)(C)O)C4)nc3c2C(C)C)cn2ncnc2c1C (stereo not drawn)
B. Cc1c(-c2[nH]c3ccc(C4CCC(NC5CCS(=O)(=O)C5)CC4)nc3c2C(C)C)cn2ncnc2c1C (stereo not drawn) [Example 470]
C. Cc1c(-c2[nH]c3ccc(C4CCC(NCCS(=O)(=O)C(F)(F)F)CC4)nc3c2C(C)C)cn2ncnc2c1C (stereo not drawn)
D. Cc1c(-c2[nH]c3ccc(C4CCC(NCCS(C)(=O)=O)CC4)nc3c2C(C)C)cn2ncnc2c1C (stereo not drawn) [Example 450]
Query: Please list these in order of increasing IC50. Thank you! List the labels in the requested order.
Result: D, B, A, C

A. Cc1cc(-c2[nH]c3cc(F)c(C4CCN(CCS(C)(=O)=O)CC4)nc3c2C(C)C)cn2ncnc12
B. CCCN(CCC)C1CCC(Oc2ccc3[nH]c(-c4cc(OC)c5ncnn5c4)c(C(C)C)c3n2)CC1 (stereo not drawn)
Query: For the pair A and B , which entry has the numerically smaller recorded IC50? Which one? Tell me its label.
Result: A
(A: 0.99 nM, B: 8.4 nM)

a. COc1cc(-c2[nH]c3ccc(C4CNCCO4)nc3c2C(C)C)cn2ncnc12 (stereo not drawn) [Example 666]
b. Cc1c(-c2[nH]c3ccc(C4CCC(N(C)C5COC5)CC4)nc3c2C(C)C)cn2ncnc2c1C (single isomer, unassigned) [Example 430]
Query: Higher IC50 between a and b ? Which one? Tell me its label.
Result: b

A. Cc1cc(-c2[nH]c3ccc(C4CCN(C5CCOCC5)CC4)nc3c2C(C)C)cn(C)c1=O
B. Cc1c(-c2[nH]c3ccc(C4CCC(NCCS(C)(=O)=O)CC4)nc3c2C(C)C)cn2ncnc2c1C (stereo not drawn) [Example 452]
Query: Higher IC50 between A and B ? Which one? Tell me its label.
Result: A
